Measured values drawn from patent US20190144529A1 for this set.

Each item that follows carries a reported kon.
target: T1, human serum albumin (human, UniProt P02768 25-609); experiment: SPR, Fab captured; albumin taken as HSA;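 also: antibody held on a capture surface, albumin injected for 3 min association then dissociation followed, signals corrected using a blank reference flow cell and buffer-only injections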
T1 construct: mature; Bought purified serum albumin; also called HSA; Human albumin
Reply numerically in M⁻¹ s⁻¹, unit not repeated.

[[record]]
binder = "CA645 gL4gH41 Fab (Fab, V domains shown, Fab: human gamma1 CH1, human kappa (Km3); Kabat numbering) VH: EVQLLESGGGLVQPGGSLRLSCAVSGIDLSNYAINWVRQAPGKGLEWIGIIWASGTTFYATWAKGRFTISRDNSKNTVYLQMNSLRAEDTAVYYCARTVPDYSTAPYFDLWGQGTLVTVSS VL: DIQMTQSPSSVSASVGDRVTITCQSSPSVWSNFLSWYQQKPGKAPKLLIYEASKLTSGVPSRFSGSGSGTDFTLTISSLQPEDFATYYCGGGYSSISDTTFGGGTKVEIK"
assay_endpoint = "kon"
unit_of_measure = "M⁻¹ s⁻¹"
experimental_value = 53700


Here's the next entry for you.
Task: So what does the record say about kon for CA645 gL4gH28 Fab (Fab, V domains shown, Fab: human gamma1 CH1, human kappa (Km3); Kabat numbering) VH: EVQLLESGGGLVQPGGSLRLSCAVSGIDLSNYAINWVRQAPGKGLEWIGIIWVSGTTFYATWAKGRFTISRDNSKNTVYLQMNSLRAEDTAVYYCARTVPGYSTAPYFDLWGQGTLVTVSS VL: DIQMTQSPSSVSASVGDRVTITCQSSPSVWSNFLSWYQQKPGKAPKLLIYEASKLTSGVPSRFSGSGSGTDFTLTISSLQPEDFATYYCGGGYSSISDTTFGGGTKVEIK ?
Result: 48500
